- tested_system: UniProt Q72874
- experiment_summary: Inhibitory activity (0.5 nM) against Protease
In this section, each of the compounds is paired with its reported inhibition.
Note: unit % is implicit; provide only the numeric part.

Worked examples, 5 compounds total:
| smiles_repr | tested_system | inhibition, % |
| --- | --- | --- |
| Cc1cccc(C)c1OCC(=O)N[C@@H](Cc1ccccc1)[C@@H](O)C[C@H](Cc1ccccc1)NC(=O)[C@H](C(C)C)N1CCCC1=O | UniProt Q72874 | 87 |
| Cc1cccc(C)c1OCC(=O)N[C@@H](Cc1ccccc1)[C@@H](O)C[C@H](Cc1ccccc1)NC(=O)[C@H](C(C)C)N1C(=O)CCC1=O | UniProt Q72874 | 58 |
| Cc1cccc(C)c1OCC(=O)N[C@@H](Cc1ccccc1)[C@@H](O)C[C@H](Cc1ccccc1)NC(=O)[C@H](C(C)C)N1CCNC(=O)C1=O | UniProt Q72874 | 73 |
| Cc1cccc(C)c1OCC(=O)N[C@@H](Cc1ccccc1)[C@@H](O)C[C@H](Cc1ccccc1)NC(=O)[C@H](C(C)C)N1CCC(=O)NC1=O | UniProt Q72874 | 100 |
| Cc1cccc(C)c1OCC(=O)N[C@@H](Cc1ccccc1)[C@@H](O)C[C@H](Cc1ccccc1)NC(=O)[C@H](C(C)C)N1CCCOC1=O | UniProt Q72874 | 85 |

Data request, read-out inhibition, for `Cc1cccc(C)c1OCC(=O)N[C@@H](Cc1ccccc1)[C@@H](O)C[C@H](Cc1ccccc1)NC(=O)[C@H](C(C)C)N1CCN=C1S`
63

---

In this section, each of the compounds is paired with its reported inhibition.
- tested_system: Human immunodeficiency virus type 1 protease (Human immunodeficiency virus 1)
- experiment_summary: Inhibitory activity (0.5 nM) against Protease
Please answer in the form of a number followed by its unit of measurement.

| smiles_repr | inhibition |
| --- | --- |
| Cc1cccc(C)c1OCC(=O)N[C@@H](Cc1ccccc1)[C@@H](O)C[C@H](Cc1ccccc1)NC(=O)[C@H](C(C)C)N1CCCN(C)C1=O | 80% |
| Cc1cccc(C)c1OCC(=O)N[C@@H](Cc1ccccc1)[C@@H](O)C[C@H](Cc1ccccc1)NC(=O)[C@H](C(C)C)N1CCOC1=O | 87% |

# ---- query compound ----
Item `Cc1cccc(C)c1OCC(=O)N[C@@H](Cc1ccccc1)[C@@H](O)C[C@H](Cc1ccccc1)NC(=O)[C@H](C(C)C)N1CCNC1=O` with Human immunodeficiency virus type 1 protease (Human immunodeficiency virus 1) - inhibition?
93%
